Hey, just so you know, these numbers are from ChEMBL document CHEMBL5143681.

# assayed-system: GABA-A receptor; alpha-1/beta-2/gamma-2 (Homo sapiens, UniProt P14867+P18507+P47870)
# Sequence (P14867 whole entry): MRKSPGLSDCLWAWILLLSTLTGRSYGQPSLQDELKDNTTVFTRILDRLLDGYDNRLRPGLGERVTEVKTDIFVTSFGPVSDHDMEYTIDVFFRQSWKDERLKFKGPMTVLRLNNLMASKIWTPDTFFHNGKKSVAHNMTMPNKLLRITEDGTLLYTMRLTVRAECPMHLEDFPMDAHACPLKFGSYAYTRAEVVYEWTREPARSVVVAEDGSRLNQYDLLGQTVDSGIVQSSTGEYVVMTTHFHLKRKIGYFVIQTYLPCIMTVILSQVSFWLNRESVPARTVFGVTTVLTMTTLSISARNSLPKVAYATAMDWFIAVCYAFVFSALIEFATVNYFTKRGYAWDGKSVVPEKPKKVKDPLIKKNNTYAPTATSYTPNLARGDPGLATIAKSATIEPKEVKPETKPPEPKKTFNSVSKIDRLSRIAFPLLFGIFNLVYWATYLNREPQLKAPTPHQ
# Sequence (P47870 whole entry): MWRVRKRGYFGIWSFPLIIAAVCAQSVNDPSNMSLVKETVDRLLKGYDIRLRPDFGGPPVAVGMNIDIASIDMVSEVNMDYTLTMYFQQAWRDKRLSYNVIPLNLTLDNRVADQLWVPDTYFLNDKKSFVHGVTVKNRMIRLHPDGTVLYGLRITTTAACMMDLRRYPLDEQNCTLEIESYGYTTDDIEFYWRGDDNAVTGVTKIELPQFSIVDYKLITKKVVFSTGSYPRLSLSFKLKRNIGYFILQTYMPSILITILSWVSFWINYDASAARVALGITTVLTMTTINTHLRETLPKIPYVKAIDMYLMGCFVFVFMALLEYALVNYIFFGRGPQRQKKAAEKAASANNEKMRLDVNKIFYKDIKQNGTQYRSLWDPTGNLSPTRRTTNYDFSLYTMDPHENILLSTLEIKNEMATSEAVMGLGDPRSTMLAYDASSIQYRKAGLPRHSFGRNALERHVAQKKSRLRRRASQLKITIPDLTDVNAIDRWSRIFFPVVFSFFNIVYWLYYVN
# Sequence (P18507 whole entry): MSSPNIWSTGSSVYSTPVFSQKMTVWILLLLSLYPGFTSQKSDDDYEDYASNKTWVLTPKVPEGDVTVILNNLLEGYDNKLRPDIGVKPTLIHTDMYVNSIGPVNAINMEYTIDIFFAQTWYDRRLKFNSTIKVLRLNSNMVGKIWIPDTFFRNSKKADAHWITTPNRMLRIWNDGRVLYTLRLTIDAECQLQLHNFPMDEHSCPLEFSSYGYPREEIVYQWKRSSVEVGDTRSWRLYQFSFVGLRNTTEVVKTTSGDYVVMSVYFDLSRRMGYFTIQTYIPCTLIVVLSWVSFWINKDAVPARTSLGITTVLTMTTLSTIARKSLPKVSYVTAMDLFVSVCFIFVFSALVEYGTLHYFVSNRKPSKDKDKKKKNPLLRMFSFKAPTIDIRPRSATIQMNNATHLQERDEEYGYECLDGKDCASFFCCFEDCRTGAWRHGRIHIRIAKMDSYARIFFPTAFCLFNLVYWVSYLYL
# protocol-summary: Positive allosteric modulation of GABAA alpha1beta2gamma2 receptor (unknown origin) stably expressed in CHO cells assessed as activation of GABA-induced response in presence of GABA by FLIPR assay
endpoint: EC50 (µM)

O=C(/C=C/C=C/c1ccc2c(c1)OCO2)N1CCCCC1 [PIPERINE] ... 5.8
C=C/C(C)=C/C[C@]1(C)[C@H](C)C[C@H](OC)[C@]23C(=C[C@@H](OC(C)=O)C[C@@H]12)[C@@H](OC(C)=O)O[C@H]3OC(C)=O ... 1.4
C=CCc1ccc(O)c(-c2cc(CC=C)ccc2O)c1 [MAGNOLOL] ... 4.8

(a) C=C/C(C)=C/C[C@]1(C)[C@H](C)C[C@H](O)[C@]23C(=C[C@@H](OC(C)=O)C[C@@H]12)[C@@H](OC(C)=O)O[C@H]3OC(C)=O
(b) C=C/C(C)=C/C[C@]1(C)[C@H](C)C[C@H](OC(C)=O)[C@]23C(=C[C@@H](OC(C)=O)C[C@@H]12)[C@@H](OC(C)=O)O[C@H]3OC(C)=O
(c) CC1=C2[C@H](/C=C(\C)C(=O)O)CC[C@@H](C)[C@H]2CC1 [VALERENIC ACID]
**Query** Order the entries by their reported EC50, beginning at the minimum. Reply format: the labels, ordered as requested.
**Result** a, b, c
(a: 0.5 µM, b: 4.6 µM, c: 12.6 µM)
